- Study Target: human CD71 on cells (SKBR3; SW620-rLuc-KRAS) (human, UniProt P02786 1-760)
- Sequence (P02786 whole entry): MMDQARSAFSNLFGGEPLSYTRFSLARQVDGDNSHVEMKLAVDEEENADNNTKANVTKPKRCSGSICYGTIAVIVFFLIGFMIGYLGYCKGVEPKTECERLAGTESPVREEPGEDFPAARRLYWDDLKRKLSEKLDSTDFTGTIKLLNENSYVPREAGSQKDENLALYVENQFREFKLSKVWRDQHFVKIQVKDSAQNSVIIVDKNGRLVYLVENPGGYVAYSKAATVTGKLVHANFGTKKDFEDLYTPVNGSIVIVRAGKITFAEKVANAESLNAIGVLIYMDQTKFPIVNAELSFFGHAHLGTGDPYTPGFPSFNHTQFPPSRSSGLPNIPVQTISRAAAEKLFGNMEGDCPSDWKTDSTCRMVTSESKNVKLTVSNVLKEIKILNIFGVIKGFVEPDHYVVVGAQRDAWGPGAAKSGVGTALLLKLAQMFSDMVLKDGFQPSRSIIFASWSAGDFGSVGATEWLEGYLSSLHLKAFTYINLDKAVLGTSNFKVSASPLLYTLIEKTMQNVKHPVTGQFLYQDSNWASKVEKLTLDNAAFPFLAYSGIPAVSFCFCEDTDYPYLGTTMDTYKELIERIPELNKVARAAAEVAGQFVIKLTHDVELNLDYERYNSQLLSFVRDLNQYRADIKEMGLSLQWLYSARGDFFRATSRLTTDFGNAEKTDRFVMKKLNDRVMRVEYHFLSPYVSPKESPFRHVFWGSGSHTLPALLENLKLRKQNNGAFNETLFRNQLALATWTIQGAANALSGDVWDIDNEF
- Protocol: cell-based or functional assay
Reported LSA EC50 (luciferase reporter assay, SW620-rLuc-KRAS cells, 72 h) values for the following binders.
Field format: number, assumed nM, no unit text.

Binder | Reported
CD71-binding FN3 domain of SEQ ID NO: 476 conjugated to KRAS2 siRNA (designed binder, conjugated to KRAS2 tool siRNA; site and linker not stated) MLPAPKNLVVSRVTEDSARLSWTAPDAAFDSFFIGYLEPQPPGEAIHLQVPGSERSYDLTGLKPGTEYNVTIQGVKGGFPSIPLIAVFTT | 0.31

query: Using the record for CD71-binding FN3 domain of SEQ ID NO: 529 conjugated to KRAS2 siRNA (designed binder, conjugated to KRAS2 tool siRNA; site and linker not stated) MLPAPKNLVVSRVTEDSARLSWTAPDAAFDSFFIGYLEPQPPGEAIDLYVPGSERSYDLTGLKPGTEYNVTIQGVKGGFPSLPLQAHFTT , report its LSA EC50 (luciferase reporter assay, SW620-rLuc-KRAS cells, 72 h).
result: 0.52

Cited source: patent US20260151494A1
